assay: in vitro; details: mouse, liver microsomes
Description: Metabolic stability in mouse liver microsomes assessed as half life
attributeMeasured: half-life
Write the numeric value and follow it with the unit.

Enquiry: What value of measured half-life is listed for "NC(=O)c1cccc(C(=O)N2CCC(CNCCCc3c[nH]c4ccc(F)cc34)CC2)c1" ?
Return: 277 min

Enquiry: Same question, "O=C(c1ccc(F)c(Cl)c1)N1CCC(CNCCCc2c[nH]c3ccc(F)cc23)CC1" this time
Return: 61.6 min

Enquiry: What do we get for "O=C(c1ccc(F)c(Cl)c1)N1CCC(CNCCCCc2c[nH]c3ccc(F)cc23)CC1" ?
Return: 45 min

Enquiry: Lookup "N#Cc1ccc2[nH]cc(CCCCN3CCN(c4ccc5oc(C(N)=O)cc5c4)CC3)c2c1"
Return: 23.1 min

Enquiry: Also need "O=C(c1cccc(Cl)c1)N1CCC(CNCCCc2c[nH]c3ccc(F)cc23)CC1" , thanks.
Return: 27.8 min

Enquiry: Same question for "NC(=O)c1ccccc1C(=O)N1CCC(CNCCCc2c[nH]c3ccc(F)cc23)CC1" please.
Return: 13.2 min

Enquiry: Would you kindly repeat that for "O=C(c1ccc(Cl)c(Cl)c1)N1CCC(CNCCCc2c[nH]c3ccc(F)cc23)CC1" ?
Return: 30.8 min

Enquiry: Try this molecule next: "NC(=O)c1ccc(C(=O)N2CCC(CNCCCc3c[nH]c4ccc(F)cc34)CC2)cc1"
Return: 102 min

###

Give inhibition for every item shown.
target: 5-hydroxytryptamine receptor 1A (Homo sapiens); assay: Displacement of [3H][…] from 5-HT1A receptor in human HEK293 cells at 1 uM measured after 60 mins by scintillation counting method relative to control; assay type: cell-based
A complete answer gives the number and then names the unit.

Enquiry: // returns reported inhibition for input "O=C(c1ccc(F)c(Cl)c1)N1CCC(CNCCCCc2c[nH]c3ccc(F)cc23)CC1"
Return: 99%

Enquiry: Follow-up item: "N#Cc1ccc2[nH]cc(CCCNCC3CCN(C(=O)c4ccc(F)c(Cl)c4)CC3)c2c1"
Return: 100%

Enquiry: Query "Cc1cc(C(=O)N2CCC(CNCCCc3c[nH]c4ccc(F)cc34)CC2)ccc1F" next
Return: 100%

Enquiry: Let us now turn to "Cc1ccc(C(=O)N2CCC(CNCCCc3c[nH]c4ccc(F)cc34)CC2)cc1"
Return: 99%

Enquiry: Can you check "O=C(c1ccc(F)c(Cl)c1)N1CCC(CNCCCc2c[nH]c3ccc(F)cc23)CC1" next?
Return: 99%

Enquiry: Also "NC(=O)c1ccc(C(=O)N2CCC(CNCCCc3c[nH]c4ccc(F)cc34)CC2)cc1" , if possible.
Return: 98%

Enquiry: Proceed to "CN(CCCc1c[nH]c2ccc(F)cc12)CC1CCN(C(=O)c2ccc(F)c(Cl)c2)CC1"
Return: 94%

Enquiry: Now the compound "O=C(c1cccc(Cl)c1)N1CCC(CNCCCc2c[nH]c3ccc(F)cc23)CC1"
Return: 101%

Enquiry: Same question for "O=C(c1ccc(Cl)c(Cl)c1)N1CCC(CNCCCc2c[nH]c3ccc(F)cc23)CC1" please.
Return: 100%

###

assay: Binding affinity to 5-HT7 receptor (unknown origin) assessed as inhibition constant; design: species or system Homo sapiens
attributeMeasured: pKi
The quantity pKi is defined as the negative base-10 logarithm of the molar concentration.

Enquiry: Looking for the measured pKi of "O=C(c1ccc(F)c(Cl)c1)N1CCC(CNCCCc2c[nH]c3ccc(F)cc23)CC1" , can you help?
Return: 7.44
